- System: OCI-AML2
- assayOverview: cell viability relative to vehicle control; higher = less cytotoxic;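 further: after 48 h exposure read by CellTiter-Glo luminescence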
- measurementConditions: 10 µM; SRSF2 genotype: P95H/wt
Where a name gives a salt, the structure may show the parent alone.
Recorded cell viability for the following compounds

- compound: "CC(C)(C)c1cc(NC(=O)Nc2ccc(Oc3ccnc4[nH]c(=O)cnc34)cc2F)n(-c2ccccc2)n1"
  cell viability: "6.64%"
- compound: "Nc1c(Br)cc(Br)cc1CN[C@H]1CC[C@H](O)CC1 [Ambroxol]"
  cell viability: "104%"
- compound: "COc1cc2nc(N3CCN(C(=O)C4CCCO4)CC3)nc(N)c2cc1OC (stereo not given) [Terazosin HCl Dihydrate]"
  cell viability: "94.8%"
- compound: "Cc1c[nH]c2nc(Nc3ccc(N4CCN(C)CC4)c(F)c3)nc(-c3cccc(CC#N)c3)c12"
  cell viability: "0.41%"
- compound: "CCCCNc1ccc(C(=O)OCCN(C)C)cc1 [Tetracaine hydrochloride (Pontocaine)]"
  cell viability: "94%"
- compound: "Fc1ccc(Cl)cc1-c1nc(Nc2ccncc2)c2nccnc2n1"
  cell viability: "104%"
- compound: "CC[C@@H]1/C=C(\\C)C[C@H](C)C[C@H](OC)[C@H]2O[C@@](O)(C(=O)C(=O)N3CCCC[C@H]3C(=O)O[C@H](/C(C)=C/[C@@H]3CC[C@H](Cl)[C@H](OC)C3)[C@H](C)[C@@H](O)CC1=O)[C@H](C)C[C@@H]2OC [Pimecrolimus]"
  cell viability: "58.1%"
- compound: "C=C1CC23CCC4C(C)(C(=O)OC5OC(CO)C(O)C(O)C5O)CCCC4(C)C2CCC1(OC1OC(CO)C(O)C(OC2OC(CO)C(O)C(O)C2O)C1OC1OC(C)C(O)C(O)C1O)C3 (stereo not given) [Rebaudioside C]"
  cell viability: "112%"
- compound: "O=c1[nH]cnc2nc[nH]c12 [Hypoxanthine]"
  cell viability: "103%"
- compound: "CCCCCC1C(=O)CCC1CC(=O)OCCC (stereo not given) [Prohydrojasmon]"
  cell viability: "110%"
- compound: "C[C@H](CC(=O)C[C@@H](C)[C@H]1C[C@H](O)[C@@]2(C)C3=C(C(=O)C[C@]12C)[C@@]1(C)CCC(=O)C(C)(C)[C@@H]1C[C@@H]3O)C(=O)O [Ganoderic acid A]"
  cell viability: "102%"
- compound: "CC[C@H](Nc1ncnc2[nH]cnc12)c1oc2ccccc2c(=O)c1-c1cccc(F)c1 [Tenalisib (RP6530)]"
  cell viability: "84.8%"
- compound: "COC(=O)C1=C(C)NC(C)=C(C(=O)OCCN2CCN(C(c3ccccc3)c3ccccc3)CC2)C1c1cccc([N+](=O)[O-])c1 (stereo not given) [Manidipine (Manyper)]"
  cell viability: "29.8%"
- compound: "CCc1ccc(CCOc2ccc(CC3SC(=O)NC3=O)cc2)nc1 (stereo not given) [Pioglitazone hydrochloride (Actos)]"
  cell viability: "95.7%"
- compound: "CC(C(=O)O)c1ccc(-c2ccccc2)c(F)c1 (stereo not given) [Flurbiprofen]"
  cell viability: "108%"

---

// reported cell viability for each item listed
- System: MARIMO
- assayOverview: cell viability relative to vehicle control; higher = less cytotoxic
- measurementConditions: 10 µM; SRSF2 genotype: SRSF2 P95H/wt
Counter-ions that a name gives are not always drawn.

- compound: "CNC(=O)c1c(C)oc2cc(Oc3ncnc4cc(OC)c(OC)cc34)ccc12"
  targetDesc: "MARIMO"
  cell viability (%): 98.6
- compound: "CO/N=C(\\C(=O)N[C@@H]1C(=O)N2C(C(=O)[O-])=C(C[n+]3ccn4ncccc43)CS[C@H]12)c1nsc(N)n1 [Cefozopran hydrochloride]"
  targetDesc: "MARIMO"
  cell viability (%): 100
- compound: "NCCCC[C@@H]1NC(=O)[C@@H](Cc2ccccc2)NC(=O)[C@H](CC(=O)O)NC(=O)CNC(=O)[C@H](CCCN=C(N)N)NC1=O [Cyclo (-RGDfK)]"
  targetDesc: "MARIMO"
  cell viability (%): 98.6
- compound: "N#C[C@@H]1C[C@@H]2C[C@@H]2N1C(=O)[C@@H](N)C12CC3CC(CC(O)(C3)C1)C2"
  targetDesc: "MARIMO"
  cell viability (%): 97.6
- compound: "C[C@@]12C[C@H](c3ccoc3)O[C@@]13C[C@H](OC3=O)[C@H]1[C@H]2C[C@@H]2C[C@H]1C(=O)O2"
  targetDesc: "MARIMO"
  cell viability (%): 105
- compound: "CCN(CC)CCOC(=O)c1ccc(N)cc1Cl [Chloroprocaine HCl]"
  targetDesc: "MARIMO"
  cell viability (%): 103
- compound: "CN(C)CCCNC(=O)c1ccc(-c2cc(O)c3ncccc3c2)cc1"
  targetDesc: "MARIMO"
  cell viability (%): 52.3
- compound: "Nc1nc(=O)[nH]c2c1ncn2[C@@H]1O[C@H](CO)[C@@H](O)[C@H]1O"
  targetDesc: "MARIMO"
  cell viability (%): 94.7
- compound: "Fc1ccc(Cn2c(Cl)nc3ccccc32)cc1"
  targetDesc: "MARIMO"
  cell viability (%): 64.6
- compound: "c1cc2c(c3c1C[C@H]1c4cc5c(cc4CCN1C3)OCO5)OCO2 [Stylopine hydrochloride]"
  targetDesc: "MARIMO"
  cell viability (%): 97.7
- compound: "CO/N=C(\\C(=O)N[C@@H]1C(=O)N2C(C(=O)[O-])=C(C[N+]3(C)CCCC3)CS[C@H]12)c1csc(N)n1 [Cefepime Dihydrochloride Monohydrate]"
  targetDesc: "MARIMO"
  cell viability (%): 96.3
- compound: "CCCCC(CC)COC(=O)C(C#N)=C(c1ccccc1)c1ccccc1 (stereo not drawn)"
  targetDesc: "MARIMO"
  cell viability (%): 95.1
- compound: "CC(C)(c1ccc(OCC(O)CO)cc1)c1ccc(OCC(O)CCl)cc1 (stereo not drawn)"
  targetDesc: "MARIMO"
  cell viability (%): 83.5
- compound: "CC(=O)N1C[C@H](O)C[C@H]1C(=O)O"
  targetDesc: "MARIMO"
  cell viability (%): 104
- compound: "CCn1cc(-c2cccc(C(F)(F)F)c2)c2sc(C(=N)NC3CCS(=O)(=O)CC3)cc2c1=O"
  targetDesc: "MARIMO"
  cell viability (%): 55.8
- compound: "CCOC(=O)CCC(=O)O[C@H]1[C@H](O[C@@H]2[C@@H](C)[C@H](O[C@H]3C[C@@](C)(OC)[C@@H](O)[C@H](C)O3)[C@@H](C)C(=O)O[C@H](CC)[C@@](C)(O)[C@H](O)[C@@H](C)C(=O)[C@H](C)C[C@@]2(C)O)O[C@H](C)C[C@@H]1N(C)C [Erythromycin Ethylsuccinate]"
  targetDesc: "MARIMO"
  cell viability (%): 102
- compound: "OCc1cc(C(O)CNCCCCCCOCCCCc2ccccc2)ccc1O (stereo not drawn)"
  targetDesc: "MARIMO"
  cell viability (%): 67.7
- compound: "CC#Cc1cncc(-c2ccc3c(c2)C2(N=C(C)C(N)=N2)C2(CCC(OC)CC2)C3)c1 (stereo not drawn)"
  targetDesc: "MARIMO"
  cell viability (%): 100
- compound: "COc1ccc(NC(=O)c2ccc(C(=N)N(C)C)cc2)c(C(=O)Nc2ccc(Cl)cn2)c1 [Betrixaban]"
  targetDesc: "MARIMO"
  cell viability (%): 82.8
- compound: "O=C1C2=C(CCN(Cc3ccccc3)C2)N2CCN=C2N1Cc1ccc(C(F)(F)F)cc1"
  targetDesc: "MARIMO"
  cell viability (%): 43
- compound: "CCCC(=O)NCCc1csc(-c2ccc(Cl)cc2)n1 [Azoramide]"
  targetDesc: "MARIMO"
  cell viability (%): 79.9
- compound: "CCn1cc(C(=O)O)c(=O)c2cc(F)c(N3CCNCC3)nc21"
  targetDesc: "MARIMO"
  cell viability (%): 109
- compound: "CCC/N=C1\\S/C(=C\\c2ccc(OC[C@H](O)CO)c(Cl)c2)C(=O)N1c1ccccc1C"
  targetDesc: "MARIMO"
  cell viability (%): 105
- compound: "CC1=C(CC(=O)O)c2cc(F)ccc2/C1=C\\c1ccc([S+](C)[O-])cc1 (stereo not drawn)"
  targetDesc: "MARIMO"
  cell viability (%): 88.6
- compound: "CN(C)CCCCC(=O)Nc1ccc(NC(=S)NC(=O)c2ccc(C(C)(C)C)cc2)cc1"
  targetDesc: "MARIMO"
  cell viability (%): 1.49
- compound: "N#CC(=Cc1ccc(-c2cc(Cl)ccc2Cl)o1)C(=O)Nc1cccc2ncccc12"
  targetDesc: "MARIMO"
  cell viability (%): 99.1
- compound: "Cc1ncc(-c2ccnc(Nc3ccc(S(C)(=O)=O)cc3)n2)n1C(C)C"
  targetDesc: "MARIMO"
  cell viability (%): 10.9
- compound: "O=C(Nc1cccc(C(F)(F)F)c1)c1cccc2cc(Oc3cc(CO)ncn3)ccc12"
  targetDesc: "MARIMO"
  cell viability (%): 101
- compound: "CN1CCN(C(=O)c2cc3cc(Cl)ccc3[nH]2)CC1"
  targetDesc: "MARIMO"
  cell viability (%): 100
- compound: "CC(C)N(CCC(=O)c1ccc2ccccc2c1)Cc1ccccc1"
  targetDesc: "MARIMO"
  cell viability (%): 0.57
- compound: "O=c1cc[nH]c(=S)[nH]1"
  targetDesc: "MARIMO"
  cell viability (%): 98.6
- compound: "C=C1CCN([C@H](C)[C@](O)(Cn2cncn2)c2ccc(F)cc2F)CC1"
  targetDesc: "MARIMO"
  cell viability (%): 76.3
- compound: "CS(=O)(=O)c1ccc(-c2cnc(N)c(C(=O)Nc3ccccc3)n2)cc1"
  targetDesc: "MARIMO"
  cell viability (%): 113
